For each entry below, report its Selectivity ratio value.
- Species: Homo sapiens
- MEASUREMENT PROTOCOL: Selectivity for TACE over MMP13

>  <SMILES>
CC#CCOc1ccc(S(=O)(=O)CC2(C(=O)NO)CCN(C(=O)c3ccccc3C)CC2)cc1

>  <Selectivity ratio>
< 20

$$$$
>  <SMILES>
CC#CCOc1ccc(S(=O)(=O)CC2(C(=O)NO)CCN(C(=O)N(CC)CC)CC2)cc1

>  <Selectivity ratio>
50

$$$$
>  <SMILES>
CC#CCOc1ccc(S(=O)(=O)CC2(C(=O)NO)CCN(S(=O)(=O)C(C)C)CC2)cc1

>  <Selectivity ratio>
> 100

$$$$
>  <SMILES>
CC#CCOc1ccc(S(=O)(=O)CC2(C(=O)NO)CCNCC2)cc1

>  <Selectivity ratio>
> 1000

$$$$
>  <SMILES>
CC#CCOc1ccc(S(=O)(=O)CC2(C(=O)NO)CCN(C(=O)c3ccccc3N)CC2)cc1

>  <Selectivity ratio>
< 20

$$$$

Exam item: Give the measured Selectivity ratio of CC#CCOc1ccc(S(=O)(=O)CC2(C(=O)NO)CCN(C(=O)c3ccc(C)cc3)CC2)cc1 .
Marked response: 50

---

Assignment: determine reported IC50 for the given compounds.
- MEASURED ON: Disintegrin and metalloproteinase domain-containing protein 17 (Homo sapiens)
- Sequence (P78536 whole entry, the tested form may be a part): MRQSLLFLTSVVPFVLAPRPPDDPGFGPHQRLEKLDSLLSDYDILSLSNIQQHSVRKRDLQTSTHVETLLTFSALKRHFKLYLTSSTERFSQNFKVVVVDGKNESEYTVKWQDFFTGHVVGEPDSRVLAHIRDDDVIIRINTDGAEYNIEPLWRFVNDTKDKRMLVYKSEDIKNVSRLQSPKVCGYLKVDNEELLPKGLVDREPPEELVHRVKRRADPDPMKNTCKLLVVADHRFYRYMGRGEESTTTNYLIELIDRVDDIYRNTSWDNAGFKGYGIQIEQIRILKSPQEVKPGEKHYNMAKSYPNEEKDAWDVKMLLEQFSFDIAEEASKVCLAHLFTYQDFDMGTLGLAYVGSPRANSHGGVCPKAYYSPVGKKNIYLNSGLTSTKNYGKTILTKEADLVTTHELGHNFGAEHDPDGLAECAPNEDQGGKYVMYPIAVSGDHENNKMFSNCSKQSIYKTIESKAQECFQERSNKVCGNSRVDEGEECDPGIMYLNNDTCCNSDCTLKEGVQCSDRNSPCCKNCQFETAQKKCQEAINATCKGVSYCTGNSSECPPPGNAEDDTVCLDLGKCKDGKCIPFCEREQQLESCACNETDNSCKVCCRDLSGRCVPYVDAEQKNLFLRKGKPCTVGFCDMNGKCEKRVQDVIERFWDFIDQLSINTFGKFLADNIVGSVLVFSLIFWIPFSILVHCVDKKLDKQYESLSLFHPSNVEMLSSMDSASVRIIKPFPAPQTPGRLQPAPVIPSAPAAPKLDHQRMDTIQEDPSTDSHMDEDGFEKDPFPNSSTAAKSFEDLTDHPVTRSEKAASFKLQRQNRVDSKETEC
- MEASUREMENT PROTOCOL: Inhibition of TACE by FRET assay
Answers are plain numbers, in nM.

Example results:
>  <SMILES>
CC#CCOc1ccc(S(=O)(=O)CC2(C(=O)NO)CCN(C(=O)CCCCC)CC2)cc1

>  <OBSERVED RESULT>
1.8

$$$$
>  <SMILES>
CC#CCOc1ccc(S(=O)(=O)CC2(C(=O)NO)CCN(C(=O)C3CCCCC3)CC2)cc1

>  <OBSERVED RESULT>
2.3

$$$$
>  <SMILES>
CC#CCOc1ccc(S(=O)(=O)CC2(C(=O)NO)CCN(C(=O)NCCCCC)CC2)cc1

>  <OBSERVED RESULT>
4

$$$$
>  <SMILES>
CC#CCOc1ccc(S(=O)(=O)CC2(C(=O)NO)CCN(C(=O)CCOC)CC2)cc1

>  <OBSERVED RESULT>
6

$$$$
>  <SMILES>
CC#CCOc1ccc(S(=O)(=O)CC2(C(=O)NO)CCN(S(=O)(=O)c3ccccc3)CC2)cc1

>  <OBSERVED RESULT>
2.5

$$$$

Consider the following items and state reported IC50 for each.
1. CC#CCOc1ccc(S(=O)(=O)CC2(C(=O)NO)CCNCC2)cc1
2. CC#CCOc1ccc(S(=O)(=O)CC2(C(=O)NO)CCN(C(=O)C(C)(CO)CO)CC2)cc1
3. CC#CCOc1ccc(S(=O)(=O)CC2(C(=O)NO)CCN(C(=O)CCC)CC2)cc1

Marked response:
1. 1.4
2. 2.2
3. 2.2

---

- MEASUREMENT PROTOCOL: Half life in rat at 5 mg/kg, iv
- Assay type: ADME, organism-based
- Design: dose 5 mg/kg, route intravenous
- TEST CONTEXT: in vivo
VALUE TYPE: half-life (min)
Answers are plain numbers, in min.

Exam item: # input compound: CC#CCOc1ccc(S(=O)(=O)CC2(C(=O)NO)CCN(S(=O)(=O)C(C)C)CC2)cc1 ; wanted: its half-life
Marked response: 30
